# STUDY_SYSTEM: SpyCas9 (S. pyogenes), Q99ZW2
# METHOD_DESCRIPTION: cell-based or functional assay
ENDPOINT: reduced editing (compared to plasmid control), A549 GFP reporter cells (%)
Quick note: give the figure in %, leave out the unit.

These recorded examples may help you get a feel for the data.
Task item: Suppose we examine the binder VCAFSADESLLIRRRHQRRRAG (modifications not checked) [Peptide 60] ; what reduced editing (compared to plasmid control), A549 GFP reporter cells value has been reported?
Reply: 30

Task item: Suppose we examine the binder LYYRIMLSCPKYYPCELVGHTS (modifications not checked) [Peptide 50] ; what reduced editing (compared to plasmid control), A549 GFP reporter cells value has been reported?
Reply: 30

Task item: Suppose we examine the binder DRSHKILLRYNGCHYRLLQRSL (modifications not checked) [Peptide 90] ; what reduced editing (compared to plasmid control), A549 GFP reporter cells value has been reported?
Reply: 35

Could you now look at the following binder, please?
Task item: Suppose we examine the binder IAGFRREWFNQNTYFENWHADR (modifications not checked) [Peptide 15] ; what reduced editing (compared to plasmid control), A549 GFP reporter cells value has been reported?
Reply: 21
